Property: CC50; scope: individual compounds
Assay: in vitro
Details: chlorocebus sabaeus, Vero cells
Give a bare numeral; the unit µM is implied.

Compound string: COC(=O)N[C@H](C(=O)N1CCC[C@H]1c1ncc(-c2ccc(-c3ccccc3C(F)(F)F)cc2)[nH]1)C(C)C
Unit label: µM
CC50: 13

Ask: Any idea what CC50 was measured for COC(=O)N[C@H](C(=O)N1CCC[C@H]1c1ncc(-c2ccc(-c3cccc(C(F)(F)F)c3)cc2)[nH]1)C(C)C ?
Reply: 12

Ask: Any idea what CC50 was measured for COC(=O)N[C@H](C(=O)N1CCC[C@H]1c1ncc(-c2ccc(-c3ccc(OC(F)(F)F)cc3)cc2)[nH]1)C(C)C ?
Reply: 10

Ask: Any idea what CC50 was measured for COC(=O)N[C@H](C(=O)N1CCC[C@H]1c1ncc(-c2ccc(-c3ccc(O)cc3)cc2)[nH]1)C(C)C ?
Reply: 13

---

// each record: one item and its pIC50 for UniProtKB P08684
// scale note: pIC50 = -log10(conc_M); give the bare number

Compound string: COC(=O)N[C@H](C(=O)N1CCC[C@H]1c1nc(-c2ccc(-c3ccc(C(F)(F)F)cc3)cc2)c[nH]1)C(C)C
Observed: 5.19

Now consider the entry below.
Ask: Any idea what pIC50 was measured for COC(=O)N[C@H](C(=O)N1CCC[C@H]1c1nc(-c2ccc(-c3ccc(CO)cc3)cc2)c[nH]1)C(C)C ?
Reply: 5.16

---

Tested on: CCRF-CEM
Settings: human
We label by threshold. Values of CC50 strictly beneath 50 µM are met. Values of 50 µM and up are not met.

Compound string: COC(=O)N[C@H](C(=O)N1CCC[C@H]1c1ncc(-c2ccc(C)cc2)[nH]1)C(C)C
Assigned class: not met

Ask: # check: CC50 < 50 µM for COC(=O)N[C@H](C(=O)N1CCC[C@H]1c1ncc(-c2ccc(-c3ccc(C#N)cc3)cc2)[nH]1)C(C)C
Reply: not met

Ask: # check: CC50 < 50 µM for COC(=O)N[C@H](C(=O)N1CCC[C@H]1c1ncc(-c2ccc(N)cc2)[nH]1)C(C)C
Reply: not met

Ask: # check: CC50 < 50 µM for COC(=O)N[C@H](C(=O)N1CCC[C@H]1c1ncc(-c2ccc(-c3ccc(C)cc3)cc2)[nH]1)C(C)C
Reply: met

Ask: # check: CC50 < 50 µM for COC(=O)N[C@H](C(=O)N1CCC[C@H]1c1ncc(-c2ccc(N=[N+]=[N-])cc2)[nH]1)C(C)C
Reply: not met

Ask: # check: CC50 < 50 µM for C[C@H](NC(=O)OC(C)(C)C)C(=O)N1CCC[C@H]1c1ncc(-c2ccc(-c3ccccc3)cc2)[nH]1
Reply: met

Ask: # check: CC50 < 50 µM for COC(=O)N[C@H](C(=O)N1CCC[C@H]1c1ncc(-c2ccc(-c3ccc(C(N)=O)cc3)cc2)[nH]1)C(C)C
Reply: not met

Ask: # check: CC50 < 50 µM for COC(=O)N[C@H](C(=O)N1CCC[C@H]1c1ncc(-c2ccc(C#N)cc2)[nH]1)C(C)C
Reply: not met

Ask: # check: CC50 < 50 µM for COC(=O)N[C@H](C(=O)N1CCC[C@H]1c1nc(Br)c(-c2ccc(N=[N+]=[N-])cc2)[nH]1)C(C)C
Reply: not met

Ask: # check: CC50 < 50 µM for COC(=O)N[C@H](C(=O)N1CCC[C@H]1c1nc(-c2ccc(-c3ccc(CO)cc3)cc2)c[nH]1)C(C)C
Reply: not met

Ask: # check: CC50 < 50 µM for COC(=O)N[C@@H](CC(C)C)C(=O)N1CCC[C@H]1c1ncc(-c2ccc(-c3ccccc3)cc2)[nH]1
Reply: not met

Ask: # check: CC50 < 50 µM for COC(=O)N[C@H](C(=O)N1CCC[C@H]1c1ncc(-c2ccc(-c3ccc(OC)cc3)cc2)[nH]1)C(C)C
Reply: met

---

Target: CYP1A2 (Homo sapiens)
Sequence (P05177 whole entry): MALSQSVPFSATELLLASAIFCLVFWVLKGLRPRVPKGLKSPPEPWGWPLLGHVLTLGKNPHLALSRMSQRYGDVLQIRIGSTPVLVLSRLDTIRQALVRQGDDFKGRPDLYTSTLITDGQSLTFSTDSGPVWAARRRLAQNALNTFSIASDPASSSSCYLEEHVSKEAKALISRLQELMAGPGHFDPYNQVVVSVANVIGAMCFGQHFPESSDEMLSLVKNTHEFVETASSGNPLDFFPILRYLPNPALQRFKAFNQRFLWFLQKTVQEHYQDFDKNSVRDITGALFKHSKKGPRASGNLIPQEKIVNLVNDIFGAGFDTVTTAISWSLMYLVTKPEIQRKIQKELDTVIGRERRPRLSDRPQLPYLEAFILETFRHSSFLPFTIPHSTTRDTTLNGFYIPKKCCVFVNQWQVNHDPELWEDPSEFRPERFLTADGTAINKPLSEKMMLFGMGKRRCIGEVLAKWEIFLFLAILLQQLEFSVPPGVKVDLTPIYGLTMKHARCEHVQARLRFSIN
Test: in vitro
Property: IC90; scope: individual compounds

Ask: Can you look up IC90 on CYP1A2 (Homo sapiens) for COC(=O)N[C@H](C(=O)N1CCC[C@H]1c1ncc(-c2ccc(N=[N+]=[N-])cc2)[nH]1)C(C)C ?
Reply: > 100 µM

Ask: Can you look up IC90 on CYP1A2 (Homo sapiens) for COC(=O)N[C@H](C(=O)N1CCC[C@H]1c1nc(-c2ccc(-c3ccc(C(F)(F)F)cc3)cc2)c[nH]1)C(C)C ?
Reply: > 100 µM

Ask: Can you look up IC90 on CYP1A2 (Homo sapiens) for COC(=O)N[C@H](C(=O)N1CCC[C@H]1c1nc(Br)c(-c2ccc(N=[N+]=[N-])cc2)[nH]1)C(C)C ?
Reply: > 100 µM

Ask: Can you look up IC90 on CYP1A2 (Homo sapiens) for COC(=O)N[C@H](C(=O)N1CCC[C@H]1c1nc(-c2ccc(-c3ccc(CO)cc3)cc2)c[nH]1)C(C)C ?
Reply: > 100 µM

---

Property: CC50; scope: individual molecules
Assay: in vitro
Conditions: human, CEM cells
Give a bare numeral; the unit µM is implied.

Compound string: COC(=O)N[C@H](C(=O)N1CCC[C@H]1c1ncc(-c2ccc(-c3cccc(C(F)(F)F)c3)cc2)[nH]1)C(C)C
Unit label: µM
CC50: 32

Ask: Any idea what CC50 was measured for COC(=O)N[C@H](C(=O)N1CCC[C@H]1c1ncc(-c2ccc(-c3ccc(O)cc3)cc2)[nH]1)C(C)C ?
Reply: 55

Ask: Any idea what CC50 was measured for COC(=O)N[C@H](C(=O)N1CCC[C@H]1c1ncc(-c2ccc(-c3ccccc3C(F)(F)F)cc2)[nH]1)C(C)C ?
Reply: 75

---

System: Hepatitis C virus
Experiment: microbe, parasite or virus in culture
Details: genotype 1b, Huh-7
Reported endpoint: EC90 (µM)
Give a bare numeral; the unit µM is implied.

Some molecules with recorded EC90:
Compound string: COC(=O)N[C@H](C(=O)N1CCC[C@H]1c1ncc(-c2ccc(-c3ccccc3)cc2)[nH]1)C(C)C
System tested: Hepatitis C virus
Unit label: µM
EC90: 0.9
--
Compound string: COC(=O)N[C@H](C(=O)N1CCC[C@H]1c1ncc(-c2ccc(N)cc2)[nH]1)C(C)C
System tested: Hepatitis C virus
Unit label: µM
EC90: 0.3
--
Compound string: COC(=O)N[C@H](C(=O)N1CCC[C@H]1c1ncc(-c2ccc(N=[N+]=[N-])cc2)[nH]1)C(C)C
System tested: Hepatitis C virus
Unit label: µM
EC90: 0.052

Now consider the entry below.
Ask: Can you look up EC90 on Hepatitis C virus for COC(=O)N[C@H](C(=O)N1CCC[C@H]1c1nc(Cl)c(-c2ccc(N=[N+]=[N-])cc2)[nH]1)C(C)C ?
Reply: 0.014

---

Target: Cytochrome P450 2D6 (Homo sapiens, UniProt P10635)
Sequence (P10635 whole entry): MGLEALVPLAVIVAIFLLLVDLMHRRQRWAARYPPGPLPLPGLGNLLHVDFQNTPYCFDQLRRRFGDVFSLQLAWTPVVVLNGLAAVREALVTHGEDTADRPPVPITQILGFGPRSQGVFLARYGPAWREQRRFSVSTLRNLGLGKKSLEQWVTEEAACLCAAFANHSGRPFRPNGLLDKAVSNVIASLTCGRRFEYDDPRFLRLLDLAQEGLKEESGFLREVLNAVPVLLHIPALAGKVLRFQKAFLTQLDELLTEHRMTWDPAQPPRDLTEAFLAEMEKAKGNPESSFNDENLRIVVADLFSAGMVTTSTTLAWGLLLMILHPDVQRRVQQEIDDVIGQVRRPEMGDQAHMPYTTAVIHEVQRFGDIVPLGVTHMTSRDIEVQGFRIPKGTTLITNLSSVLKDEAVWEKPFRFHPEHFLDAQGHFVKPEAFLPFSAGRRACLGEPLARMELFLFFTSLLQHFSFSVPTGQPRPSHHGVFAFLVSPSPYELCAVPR
Reported endpoint: IC50 (µM)
Give a bare numeral; the unit µM is implied.

Ask: Any idea what IC50 was measured for COC(=O)N[C@H](C(=O)N1CCC[C@H]1c1nc(-c2ccc(-c3ccc(C(F)(F)F)cc3)cc2)c[nH]1)C(C)C ?
Reply: 62.1

---

Target: CYP3A4 (Homo sapiens)
Sequence (P08684 whole entry): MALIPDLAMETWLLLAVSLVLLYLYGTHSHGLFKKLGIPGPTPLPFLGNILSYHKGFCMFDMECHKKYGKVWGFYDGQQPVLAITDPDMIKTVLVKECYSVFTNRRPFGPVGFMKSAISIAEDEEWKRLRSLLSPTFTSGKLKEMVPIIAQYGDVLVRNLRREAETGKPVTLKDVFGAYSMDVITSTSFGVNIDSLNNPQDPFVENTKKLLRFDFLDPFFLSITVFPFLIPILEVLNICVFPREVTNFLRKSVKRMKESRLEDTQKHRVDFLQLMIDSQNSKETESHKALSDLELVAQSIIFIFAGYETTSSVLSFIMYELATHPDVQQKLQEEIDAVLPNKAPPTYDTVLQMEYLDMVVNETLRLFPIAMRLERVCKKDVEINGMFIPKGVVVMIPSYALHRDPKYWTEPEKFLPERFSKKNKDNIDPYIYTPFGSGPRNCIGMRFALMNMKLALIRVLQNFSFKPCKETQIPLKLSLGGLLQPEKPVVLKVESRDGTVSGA
Assay: in vitro
Property: IC90; scope: individual compounds
Give a bare numeral; the unit µM is implied.

Compound string: COC(=O)N[C@H](C(=O)N1CCC[C@H]1c1nc(Br)c(-c2ccc(N=[N+]=[N-])cc2)[nH]1)C(C)C
System tested: CYP3A4 (Homo sapiens)
Reported endpoint: IC90
Observed: 46.1

Now consider the entry below.
Ask: Any idea what IC90 was measured for COC(=O)N[C@H](C(=O)N1CCC[C@H]1c1ncc(-c2ccc(N=[N+]=[N-])cc2)[nH]1)C(C)C ?
Reply: 96.1

---

Property: CC50; scope: individual compounds
System: Vero
Conditions: chlorocebus sabaeus

Some compounds with recorded CC50:
Compound string: COC(=O)Nc1ccc(-c2cnc([C@@H]3CCCN3C(=O)[C@@H](NC(=O)OC)C(C)C)[nH]2)cc1
System tested: Vero
CC50: > 100 µM
--
Compound string: COC(=O)N[C@H](C(=O)N1CCC[C@H]1c1nc(Br)c(-c2ccc(N=[N+]=[N-])cc2)[nH]1)C(C)C
System tested: Vero
CC50: 16 µM
--
Compound string: COC(=O)N[C@H](C(=O)N1CCC[C@H]1c1ncc(-c2ccc(-c3ccc(N=[N+]=[N-])cc3)cc2)[nH]1)C(C)C
System tested: Vero
CC50: 11 µM

Ask: Can you look up CC50 on Vero for COC(=O)N[C@H](C(=O)N1CCC[C@H]1c1ncc(-c2ccc(-c3ccc(C(N)=O)cc3)cc2)[nH]1)C(C)C ?
Reply: > 100 µM

Ask: Can you look up CC50 on Vero for C[C@H](NC(=O)OC(C)(C)C)C(=O)N1CCC[C@H]1c1ncc(-c2ccc(-c3ccccc3)cc2)[nH]1 ?
Reply: 13 µM

Ask: Can you look up CC50 on Vero for COC(=O)N[C@@H](CC(C)C)C(=O)N1CCC[C@H]1c1ncc(-c2ccc(-c3ccccc3)cc2)[nH]1 ?
Reply: 25 µM

Ask: Can you look up CC50 on Vero for COC(=O)N[C@H](C(=O)N1CCC[C@H]1c1ncc(-c2ccc(-c3ccccc3)cc2)[nH]1)C(C)C ?
Reply: 18 µM

Ask: Can you look up CC50 on Vero for COC(=O)N[C@H](C(=O)N1CCC[C@H]1c1ncc(-c2ccc(-c3ccc(OC)cc3)cc2)[nH]1)C(C)C ?
Reply: 13 µM

// data source = ChEMBL document CHEMBL2346553
